# IC50 values compiled below
system: 769-P; assay: cells; format: functional, cell-based, Homo sapiens; conditions: Homo sapiens, 769-P
Description: SANGER: Inhibition of human 769-P cell growth in a cell viability assay.

For orientation, consider the following solved cases.
Molecule	IC50
COC(=O)CNC(=O)C(=O)OC	> 4000 µM
COc1cc(F)c(F)c(Nc2ccc(I)cc2F)c1NS(=O)(=O)C1(CC(O)CO)CC1 (stereo unspecified)	> 5 µM
COc1ccc(C2=N[C@@H](c3ccc(Cl)cc3)[C@@H](c3ccc(Cl)cc3)N2C(=O)N2CCNC(=O)C2)c(OC(C)C)c1 [NUTLIN-3]	> 8 µM
CC(=O)O[C@@H]1[C@@H](OC(C)=O)[C@@H](O)[C@H](Oc2c(-c3ccc(O)cc3)oc3cc(O)cc(O)c3c2=O)O[C@H]1C	> 10 µM
CCC1=C[C@@H]2CN(C1)Cc1c([nH]c3ccccc13)[C@@](C(=O)OC)(c1cc3c(cc1OC)N(C)[C@H]1[C@@](O)(C(=O)OC)[C@H](OC(C)=O)[C@]4(CC)C=CCN5CC[C@]31[C@@H]54)C2 [VINORELBINE]	0.0169 µM

Note: attention shifts to another entry.
[Q] Need IC50 of COc1cc([C@@H]2c3cc4c(cc3[C@@H](O[C@@H]3O[C@@H]5CO[C@@H](C)O[C@H]5[C@H](O)[C@H]3O)[C@H]3COC(=O)[C@H]23)OCO4)cc(OC)c1O [ETOPOSIDE] , thanks.
[A] 2.26 µM

---

tested on: CGTH-W-1; experiment: cells; format: functional, cell-based, Homo sapiens; settings: Homo sapiens, CGTH-W-1;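 further: growth inhibition of human CGTH-W-1 cells measured by cell viability assay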
Description: SANGER: Inhibition of human CGTH-W-1 cell growth in a cell viability assay.
Measured attribute: IC50 (nM)
Numeric only. Scale: nM

Study these solved cases before continuing.
Compound string	Assay system	IC50 (nM)
COc1ccc(-c2ccc3c(N4CCOC[C@@H]4C)nc(N4CCOC[C@@H]4C)nc3n2)cc1CO	CGTH-W-1	1560
CN(c1ncccc1CNc1nc(Nc2ccc3c(c2)CC(=O)N3)ncc1C(F)(F)F)S(C)(=O)=O	CGTH-W-1	1620
CC(=O)O[C@@]12CO[C@@H]1C[C@H](O)[C@@]1(C)C(=O)[C@H](O)C3=C(C)[C@@H](OC(=O)[C@H](O)[C@@H](NC(=O)OC(C)(C)C)c4ccccc4)C[C@@](O)([C@@H](OC(=O)c4ccccc4)[C@H]21)C3(C)C	CGTH-W-1	0.542

Please find the next compound below.
[Q] For "Nc1ccn([C@@H]2O[C@H](CO)[C@@H](O)[C@@H]2O)c(=O)n1" , what is its reported IC50?
[A] 182

---

List of pIC50 values.
system: NCI-H1838; experiment: cells; type: functional, cell-based, Homo sapiens; conditions: Homo sapiens, NCI-H1838;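 further: growth inhibition of NCI-H1838 cells, determined with a cell viability readout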
Description: SANGER: Inhibition of human NCI-H1838 cell growth in a cell viability assay.
pIC50: −log10 of the molar value.

Guide cases for pIC50, answers given:
Compound string	pIC50
Cn1cncc1[C@@](N)(c1ccc(Cl)cc1)c1ccc2c(c1)c(-c1cccc(Cl)c1)cc(=O)n2C	< 4.80
CC(=O)O[C@@]12CO[C@@H]1C[C@H](O)[C@@]1(C)C(=O)[C@H](O)C3=C(C)[C@@H](OC(=O)[C@H](O)[C@@H](NC(=O)OC(C)(C)C)c4ccccc4)C[C@@](O)([C@@H](OC(=O)c4ccccc4)[C@H]21)C3(C)C	< 8.00
CC1=C2C[C@H]3[C@@H](CC=C4C[C@@H](O)CC[C@@]43C)[C@@H]2CC[C@]12O[C@@H]1C[C@H](C)CN[C@H]1[C@H]2C	< 4.80
CCC1=C[C@@H]2CN(C1)Cc1c([nH]c3ccccc13)[C@@](C(=O)OC)(c1cc3c(cc1OC)N(C)[C@H]1[C@@](O)(C(=O)OC)[C@H](OC(C)=O)[C@]4(CC)C=CCN5CC[C@]31[C@@H]54)C2	< 7.19
CN(c1ncccc1CNc1nc(Nc2ccc3c(c2)CC(=O)N3)ncc1C(F)(F)F)S(C)(=O)=O	< 5.59

# evaluate next
[Q] I am curious: what pIC50 value has been reported for "O=C(c1cc(Cc2n[nH]c(=O)c3ccccc23)ccc1F)N1CCN(C(=O)C2CC2)CC1" ?
[A] < 5.30

---

tested on: RPMI-6666; test: cells; assay type: functional, cell-based; details: Homo sapiens
Description: SANGER: Inhibition of human RPMI-6666 cell growth in a cell viability assay.
In this section we review reported IC50 values for a set of molecules.

Solved cases below.
Molecule	IC50
CS(=O)(=O)CCNCc1ccc(-c2ccc3ncnc(Nc4ccc(OCc5cccc(F)c5)c(Cl)c4)c3c2)o1	> 2 µM
CC1=C2C[C@H]3[C@@H](CC=C4C[C@@H](O)CC[C@@]43C)[C@@H]2CC[C@]12O[C@@H]1C[C@H](C)CN[C@H]1[C@H]2C	> 16 µM
COc1cc([C@@H]2c3cc4c(cc3[C@@H](O[C@@H]3O[C@@H]5CO[C@@H](C)O[C@H]5[C@H](O)[C@H]3O)[C@H]3COC(=O)[C@H]23)OCO4)cc(OC)c1O [ETOPOSIDE]	1.03 µM
CN1CCN(CCOc2cc(OC3CCOCC3)c3c(Nc4c(Cl)ccc5c4OCO5)ncnc3c2)CC1	> 2 µM

[Q] Missing value: IC50, RPMI-6666, entry "CN(c1ncccc1CNc1nc(Nc2ccc3c(c2)CC(=O)N3)ncc1C(F)(F)F)S(C)(=O)=O" . Fill in?
[A] > 2.56 µM

[Q] Let us now turn to "Cc1cnc(-c2cnc(NCCNc3ccc(C#N)cn3)nc2-c2ccc(Cl)cc2Cl)[nH]1"
[A] > 2.56 µM

[Q] Same read-out for "Cc1cc([C@@H](C)Nc2ccccc2C(=O)O)c2nc(N3CCOCC3)cc(=O)n2c1" ?
[A] 0.644 µM

---

# maps each entry to its IC50
test system: HT-1376; assay: cells; assay type: functional, cell-based, Homo sapiens; settings: Homo sapiens, HT-1376
Description: SANGER: Inhibition of human HT-1376 cell growth in a cell viability assay.

Recorded results for 2 molecules are shown here.
>>> print(df.to_string())
                                   molecule  measured_attribute  reported_value
0  Cc1cnc(-c2cnc(NCCNc3ccc(C#N)cn3)nc2-c2ccc(Cl)cc2Cl)[nH]1 [LADUVIGLUSIB]                IC50       > 2560 nM
1  C=CCc1cccc(/C=N/NC(=O)CN2CCN(Cc3ccccc3)CC2)c1O [PAC-1]                IC50       > 2560 nM

[Q] Form field: reported IC50 of Cn1cc(C2=C(c3ccc(Cl)cc3Cl)C(=O)NC2=O)c2ccccc21 [SB-216763]
[A] > 10000 nM

---

system: SW948; experiment: cells; format: functional, cell-based, Homo sapiens; details: Homo sapiens, SW948;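 further: growth inhibition of SW948 cells, read out with a cell viability assay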
Description: SANGER: Inhibition of human SW948 cell growth in a cell viability assay.
Measured attribute: IC50

Example cases with answers are listed next.
Compound	Assay system	IC50
Cc1ccc(Nc2nccc(N(C)c3ccc4c(C)n(C)nc4c3)n2)cc1S(N)(=O)=O [PAZOPANIB]	SW948	> 8000 nM
COc1ccc(-c2ccc3c(N4CCOC[C@@H]4C)nc(N4CCOC[C@@H]4C)nc3n2)cc1CO [AZD-8055]	SW948	> 2000 nM
CN(C)C/C=C/C(=O)Nc1cc2c(Nc3ccc(F)c(Cl)c3)ncnc2cc1O[C@H]1CCOC1 [AFATINIB]	SW948	> 500 nM

[Q] So what does the record say about IC50 for "CCOc1nc(NC(=O)Cc2cc(OC)ccc2OC)cc(N)c1C#N" ?
[A] > 10000 nM

[Q] And then CC(=O)O[C@@]12CO[C@@H]1C[C@H](O)[C@@]1(C)C(=O)[C@H](O)C3=C(C)[C@@H](OC(=O)[C@H](O)[C@@H](NC(=O)OC(C)(C)C)c4ccccc4)C[C@@](O)([C@@H](OC(=O)c4ccccc4)[C@H]21)C3(C)C [DOCETAXEL] , what is it?
[A] > 10 nM

[Q] Also Nc1ccn([C@@H]2O[C@H](CO)[C@@H](O)[C@@H]2O)c(=O)n1 [CYTARABINE] ?
[A] > 2000 nM

[Q] Record: O=C(NOCC1CC1)c1ccc(F)c(F)c1Nc1ccc(I)cc1Cl [CI-1040]
[A] > 10000 nM

[Q] Quick one: CN(Cc1cnc2nc(N)nc(N)c2n1)c1ccc(C(=O)N[C@@H](CCC(=O)O)C(=O)O)cc1 [METHOTREXATE]
[A] > 200 nM

---

Listing: IC50 of selected compounds
tested on: CP50-MEL-B; assay: cells; type: functional, cell-based, Homo sapiens; settings: Homo sapiens, CP50-MEL-B;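 further: growth inhibition of the human cell line, measured with a cell viability read-out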
Description: SANGER: Inhibition of human CP50-MEL-B cell growth in a cell viability assay.

Examples with their reported IC50 follow.
In [3]: df
Out[3]:
                            compound_string  measured_attribute  reported_value
0  Cc1ccc(Nc2nccc(N(C)c3ccc4c(C)n(C)nc4c3)n2)cc1S(N)(=O)=O                IC50          > 8 µM
1  CC(=O)O[C@@H]1[C@@H](OC(C)=O)[C@@H](O)[C@H](Oc2c(-c3ccc(O)cc3)oc3cc(O)cc(O)c3c2=O)O[C@H]1C                IC50         > 10 µM
2   O=C1N=C(NCc2cccs2)S/C1=C\c1ccc2ncccc2c1                IC50          > 5 µM
3  C[C@]1(O)C[C@@H](c2nc(-c3ccc4ccc(-c5ccccc5)nc4c3)c3c(N)nccn32)C1                IC50       > 2.56 µM
4  C=CCc1cccc(/C=N/NC(=O)CN2CCN(Cc3ccccc3)CC2)c1O                IC50       > 2.56 µM

[Q] Item "Cc1cnc(-c2cnc(NCCNc3ccc(C#N)cn3)nc2-c2ccc(Cl)cc2Cl)[nH]1" has what recorded IC50?
[A] > 2.56 µM

[Q] # repeat for "Cn1cc(C2=C(c3ccc(Cl)cc3Cl)C(=O)NC2=O)c2ccccc21"
[A] > 10 µM

[Q] Next compound up: "CCOc1nc(NC(=O)Cc2cc(OC)ccc2OC)cc(N)c1C#N"
[A] > 10 µM
